procedureDetails: BET inhibitor-based combinations targeting novel dependencies in MECOM-rearranged (r) AML: AML-194 cell line (AID 2202237; note: nearly all actives have a fitted effect of over 40% in size)
particulars: AML-194 (MECOM-r AML) viability, CellTiter-Glo, 48 h; series mostly up to 46 µM
Results filed as inconclusive are left out. Active and inactive are the calls of the source. Calls come from the whole dose curve; as a rule, active = well fitted inhibition curve with a large enough effect; inconclusive = small, poorly fitted or top-dose-only effect; inactive = flat fitted curve, though single readings scatter.
Write down one outcome, taken from Y for active, N for inactive

Call for entry Cc1ccc(C(=O)Nc2ccc(S(=O)(=O)O)c3cc(S(=O)(=O)O)cc(S(=O)(=O)O)c23)cc1NC(=O)c1cccc(NC(=O)Nc2cccc(C(=O)Nc3cc(C(=O)Nc4ccc(S(=O)(=O)O)c5cc(S(=O)(=O)O)cc(S(=O)(=O)O)c45)ccc3C)c2)c1 :
N

Call for entry N[C@@H](Cc1ccc(O)c(O)c1)C(=O)O :
N

Call for entry COc1ccc([C@@H]2Sc3ccccc3N(CCN(C)C)C(=O)[C@@H]2OC(C)=O)cc1 :
N

Call for entry c1cc(-c2sc(-c3ccncc3)c(-c3ccncc3)c2-c2ccncc2)ccn1 :
N

Call for entry CC(C)(C)OC(=O)N[C@H]1CCCCCC=C[C@@H]2C[C@@]2(C(=O)NS(=O)(=O)C2CC2)NC(=O)[C@@H]2C[C@@H](OC(=O)N3Cc4cccc(F)c4C3)CN2C1=O :
N

Call for entry COc1cc2nc(N3CCCN(C)CC3)nc(NC3CCN(Cc4ccccc4)CC3)c2cc1OC :
Y

Call for entry CNC1CCC(N(Cc2cccc(-c3ccncc3)c2)C(=O)c2sc3c(F)ccc(F)c3c2Cl)CC1 (configuration not stated) :
Y

Call for entry O=C(NC(Cc1cc(=O)[nH]c2ccccc12)C(=O)O)c1ccc(Cl)cc1 (configuration not stated) :
N

Call for entry Cc1n[nH]c(C)c1Cc1sc2c(c1C(=O)N1C[C@H](O)CO1)c(=O)n(C)c(=O)n2CC(C)C :
N

Call for entry CC(C(=O)O)c1ccc2c(c1)CC(=O)c1ccccc1S2 (configuration not stated) :
N

Call for entry COc1cc(SC)ccc1C(=O)N1CCC(Cc2ccccc2)CC1 :
N

Call for entry CCOc1cc(N)c(Cl)cc1C(=O)NCC1CN(Cc2ccc(F)cc2)CCO1 (configuration not stated) :
N

Call for entry Oc1ccc(-c2ccc(-c3cc(Nc4cccc(CNC5CC5)c4)n[nH]3)cc2)c(O)c1 :
Y

Call for entry CC1CCC(C(=O)N(c2cc(C#CC(C)(C)C)sc2C(=O)O)C2CCC(O)CC2)CC1 (configuration not stated) :
N

Call for entry O=C(c1ccc(Nc2nccc(-c3cc4ccccc4s3)n2)cc1)N1CCC(N2CCCC2)CC1 :
Y

Call for entry CC(C)[C@H](CO)Nc1nc(Nc2ccc(C(=O)O)c(Cl)c2)c2ncn(C(C)C)c2n1 :
N

Call for entry COc1cccc(OC)c1-c1cc(C(=O)NC2(C(=O)O)C3CC4CC(C3)CC2C4)nn1-c1ccnc2cc(Cl)ccc12 (configuration not stated) :
N

----------
testedOn: Retinaldehyde dehydrogenase 3 (Homo sapiens)
procedureDetails: qHTS for Inhibitors of the Aldehyde Dehydrogenase Family (ALDH1A3) Confirmatory screens (AID 2061311); note: nearly all actives have a fitted effect of over 60% in size
particulars: ALDH inhibition qHTS; series mostly up to 46 µM
Results filed as inconclusive are left out. Calls of active or inactive are those of the source. Calls follow the shape of the dose curve; as a rule, active = well fitted inhibition curve with a large enough effect; inconclusive = small, poorly fitted or top-dose-only effect; inactive = no such curve, though single readings can be large or run the other way.
Write down one outcome, taken from active, inactive

Call for entry O=C(Nc1ccccc1Cl)c1cnc2ccc(C3CCNCC3)cn12 :
inactive

Call for entry N#Cc1c(-c2ccc3c(c2)OCO3)no[n+]1[O-] :
inactive

Call for entry CC(C)(C)CNc1nc(C#N)nc(Nc2ccccc2)n1 :
inactive

Call for entry COc1cc2c(CCNC(C)=O)c[nH]c2cc1Cl :
inactive

Call for entry OC[C@H]1O[C@@H](O[C@H]2[C@H](O)[C@@H](CO)O[C@@H](OCc3ccccc3)[C@@H]2O[C@@H]2OC[C@](O)(CO)[C@H]2O)[C@H](O)[C@@H](O)[C@@H]1O :
active

Call for entry N#Cc1c(-c2csc(-c3no[n+]([O-])c3C#N)c2)no[n+]1[O-] :
active

Call for entry COc1ccc(C[C@@H](NS(=O)(=O)c2ccc(C(=O)O)cc2)C(=O)O)cc1 :
inactive

Call for entry COc1ccc(C2Nc3ccccc3C(=O)N2Cc2ccc(C(F)(F)F)cc2)cc1COc1ccc(NC(C)=O)cc1 (stereo unspecified) :
active

Call for entry O=S(=O)(Nc1ccc(O)c2ncccc12)c1ccccc1F :
active

Call for entry O=C(O)c1cnn(-c2nc3cc(OC(F)(F)F)c(Cl)cc3[nH]2)c1 :
active

Call for entry O=C(O)/C=C/c1ccc(O)c(O)c1 :
inactive

Call for entry Cc1ccnc(NC(=S)N2CCN(c3ccc(N)cc3)CC2)c1 :
inactive

Call for entry COc1cccc(C2c3c(ncn(CCCN4CCOCC4)c3=N)Oc3ccc4ccccc4c32)c1 (stereo unspecified) :
inactive

Call for entry O=C(CCl)Nc1cccc(NC2=NS(=O)(=O)c3ccccc32)c1 :
inactive

Call for entry Cc1nc(N=Nc2cc(S(=O)(=O)O)c3cc([N+](=O)[O-])cc(S(=O)(=O)O)c3c2)c(COP(=O)(O)O)c(C=O)c1O :
active

Call for entry CC(C)(C)Nc1nc(C#N)nc(Nc2ccccc2)n1 :
inactive

Call for entry CC(=O)c1c(C)cc2cccc(O)c2c1O[C@@H]1O[C@H](CO)[C@@H](O)[C@H](O)[C@H]1O :
active

Call for entry Cc1cc2c(c(=O)[nH]1)OC(C(O)CC(C)C)O2 (stereo unspecified) :
inactive

Call for entry COc1cc(F)cc(F)c1[S+](=O)([O-])N1CCN([S+](=O)([O-])c2ccc3c(c2)OCCO3)CC1 :
inactive

Call for entry Cc1cccc2c(C(=O)O)cc(Cl)nc12 :
inactive

Call for entry Cc1ccc(NS(=O)(=O)c2ccc3c(c2)CC(=O)N3)cc1C :
inactive

Call for entry CN1CCN(c2nn3c(=O)c4ccccc4nc3s2)CC1 :
active

Call for entry CNC(=S)NS(=O)(=O)c1cc(CCNC(=O)c2cc(Cl)ccc2OC)ccc1OC :
inactive

Call for entry O=C1CC(c2ccc([N+](=O)[O-])cc2)=NN1c1ccccc1 :
active

Call for entry C=C(C(=O)OC)C1CCC2(C)C(O[C@@H]3O[C@H](CO)[C@@H](O)[C@H](O)[C@H]3O)CC(=O)C(C)C2C1O (stereo partly specified) :
active

Call for entry C=CCNc1oc(-c2cccs2)nc1C#N :
inactive

Call for entry Cc1ccc(C[C@@H](NS(=O)(=O)c2ccc(C(=O)O)cc2)C(=O)O)cc1 :
inactive

Call for entry CC(=O)c1ccc(NC(=O)CSc2ccc3nc(-c4ccccc4)cn3n2)cc1 :
active

Call for entry COc1ccc(-c2ccn(CC[C@](C)(C(=O)NO)S(C)(=O)=O)c(=O)c2)c(F)c1 :
active

Call for entry O=C1OCc2cc3cccc(O[C@@H]4O[C@H](CO)[C@@H](O)[C@H](O)[C@H]4O)c3c(O)c21 :
active

Call for entry Cc1ccc2nc(-c3ccccn3)c(Nc3ccccc3C)n2c1 :
inactive

Call for entry Cc1cc2ncc(C(=O)NCC(C)(C)NCC(=O)N3CCC[C@H]3C#N)cn2n1 :
inactive

Call for entry OC[C@H]1O[C@@H](n2cnc3c2NC=NC[C@H]3O)C[C@@H]1O :
inactive

Call for entry O=C1c2cccc3cccc(c23)C(=O)N1CCN1CCN(S(=O)(=O)c2cccc([N+](=O)[O-])c2)CC1 :
inactive

Call for entry CCOC(=O)c1cccc(CNc2ccc(N(C)C(=O)Nc3ccccc3)cc2)c1 :
inactive

Call for entry C=C1C(=O)O[C@@H]2C3C(=C(C)[C@@H](O)[C@@H](OC(=O)/C(=C/C)COC(C)=O)[C@@H]12)C(=O)[C@H]1O[C@@]31C (stereo partly specified) :
inactive

Call for entry O=C1NC(=O)C(c2cn(-c3ccccc3)nc2-c2ccc(F)cc2)N1 (stereo unspecified) :
inactive

Call for entry CCc1ccc(-n2c(SCc3cccc(F)c3)nc3[nH]ncc3c2=O)cc1 :
active

Call for entry CC(=O)Nc1ccc(S(=O)(=O)N2CCN(S(=O)(=O)c3ccc4c(c3)OCCO4)CC2)cc1 :
inactive

Call for entry O=C(O)CN1C(=O)N/C(=C\c2cccn2-c2ccc(P(=O)(O)O)cc2)C1=O :
inactive

Call for entry Cc1cn[nH]c1 :
inactive
